target of assay: purified wild type MGL (wt-MGLL 6H-11-313) (Homo sapiens, UniProt Q99685)
Sequence (Q99685 1-303): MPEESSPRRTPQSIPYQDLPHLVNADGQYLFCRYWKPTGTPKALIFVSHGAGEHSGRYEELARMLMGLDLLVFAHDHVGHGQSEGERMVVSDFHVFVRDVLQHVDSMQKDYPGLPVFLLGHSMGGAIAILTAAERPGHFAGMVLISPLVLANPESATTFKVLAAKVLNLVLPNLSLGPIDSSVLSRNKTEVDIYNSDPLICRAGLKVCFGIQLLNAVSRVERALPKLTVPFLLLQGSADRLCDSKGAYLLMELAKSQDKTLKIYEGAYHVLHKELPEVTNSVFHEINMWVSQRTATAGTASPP
List of pIC50 values.
# pIC50: negative log10 of molar concentration; output just the value

Here is how some compounds turned out for pIC50.
Find the recorded pIC50 belonging to `O=C(c1cscn1)N1CCN(C2CN(C(=O)c3cn(-c4cccc(F)c4)c4ccccc34)C2)CC1` and report it.
5.72

Next: `COc1ccc(C(=O)N2CC(N3CCN(C(=O)c4cscn4)CC3)C2)cc1-c1ccccc1`
5.98

Next: `O=C(c1ccc(-c2ccccc2)cc1)N1CC(N2CCN(C(=O)c3cocn3)CC2)C1`
6.58

Next: `O=C(c1cnn(-c2ccccc2)n1)N1CC(N2CCN(C(=O)c3nccs3)CC2)C1`
5.38

---
Find the recorded pIC50 belonging to `O=C(c1ccc(S(=O)(=O)c2cccc(C(F)(F)F)c2)cc1)N1CC(N2CCN(C(=O)c3nccs3)CC2)C1` and report it.
8.15
